Where do these numbers come from? They come from PubChem BioAssay (Tox21).

tested_target: Progesterone receptor (Homo sapiens) (UniProt P06401)
Sequence (P06401 whole entry, looked up): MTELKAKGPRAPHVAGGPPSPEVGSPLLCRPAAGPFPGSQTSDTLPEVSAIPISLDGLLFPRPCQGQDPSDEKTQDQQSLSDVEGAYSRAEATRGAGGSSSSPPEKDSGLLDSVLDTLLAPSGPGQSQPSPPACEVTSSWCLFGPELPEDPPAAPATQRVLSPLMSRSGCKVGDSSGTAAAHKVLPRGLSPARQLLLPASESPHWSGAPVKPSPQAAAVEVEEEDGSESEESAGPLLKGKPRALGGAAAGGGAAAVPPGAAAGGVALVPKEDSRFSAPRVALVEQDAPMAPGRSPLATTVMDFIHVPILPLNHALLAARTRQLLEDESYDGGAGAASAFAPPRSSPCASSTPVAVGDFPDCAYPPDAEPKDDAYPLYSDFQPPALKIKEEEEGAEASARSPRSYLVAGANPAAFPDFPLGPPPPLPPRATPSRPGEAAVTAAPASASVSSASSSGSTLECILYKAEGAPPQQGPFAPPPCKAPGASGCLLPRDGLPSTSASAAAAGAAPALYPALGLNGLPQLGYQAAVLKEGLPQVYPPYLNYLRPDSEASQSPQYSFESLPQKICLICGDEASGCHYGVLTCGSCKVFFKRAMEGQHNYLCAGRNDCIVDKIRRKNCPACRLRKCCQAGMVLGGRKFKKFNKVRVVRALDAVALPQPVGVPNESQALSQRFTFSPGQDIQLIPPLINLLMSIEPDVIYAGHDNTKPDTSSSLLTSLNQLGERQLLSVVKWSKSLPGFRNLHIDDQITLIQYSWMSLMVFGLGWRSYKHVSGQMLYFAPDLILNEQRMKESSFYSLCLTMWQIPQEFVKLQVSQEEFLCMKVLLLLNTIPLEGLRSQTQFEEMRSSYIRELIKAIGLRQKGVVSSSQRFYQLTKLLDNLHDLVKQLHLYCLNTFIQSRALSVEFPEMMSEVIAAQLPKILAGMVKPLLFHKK
assay_summary: qHTS assay to identify small molecule antagonists of the progesterone receptor (PR) signaling pathway (AID 1346795)
conditions_used: PR-UAS-bla HEK293T, beta-lactamase FRET ratio, 16 h; series mostly up to 92.4 µM
Results filed as inconclusive are left out. Calls of active or inactive are those of the source. Calls come from the whole dose curve; as a rule, active = well fitted inhibition curve with a large enough effect in the signal ratio in the repeat runs (not every such curve was filed as active); inconclusive = weak or mixed curves; inactive = flat fitted curve, though single readings scatter; the % refers to the signal ratio.
Outcome codes: label 1 (active), label 0 (inactive)

molecule | cat
Cc1occc1C(=O)Nc1ccc(C(=O)N2CCC(F)(F)/C(=C\C(=O)N3CCC(N4CCCCC4)CC3)c3ccccc32)cc1 | label 0
OCC1CC=CCC1 (stereo not drawn) | label 0
C=CCNc1nc(NCC=C)nc(N2CCN(C(c3ccc(F)cc3)c3ccc(F)cc3)CC2)n1 | label 1
CCC(=O)OC/C=C/c1ccccc1 | label 0
CCc1cccc(N(C)C(N)=Nc2cccc3ccccc23)c1 | label 0
COC(=O)c1cc(Cl)ccc1NS(=O)(=O)C(F)(F)F | label 0
CCOC(=O)/C=C/C(=O)O | label 0
CC#N | label 0
CO[Si](C)(OC)OC | label 0
CC(C)(CCl)c1ccccc1 | label 0
NCC1CCCC(CN)C1 (stereo not drawn) | label 0
Cc1nc2ccccc2s1 | label 0
Nc1nc(Cl)nc2c1ncn2[C@@H]1O[C@H](CO)[C@@H](O)[C@@H]1F | label 0

---

assay_summary: A CellTox Green Cytotoxicity Assay to monitor cytotoxicity in HepG2 cells - 24 hour (AID 1224878); note: % is set by controls: 0 for no effect and ±100 for the full control effect; nearly all actives have a fitted effect of over 45% in size
conditions_used: CellTox Green fluorescence; series mostly up to 76.8 µM
Records with an inconclusive call do not appear. Activity calls are given as the source filed them. The call rests on the fitted dose curve; in most records, active means well fitted activation curve with a large enough effect in the repeat runs; inconclusive means weak or mixed curves; inactive means flat fitted curve, though single readings scatter.
Reported cytotoxicity values follow for various compounds

mol | cytotoxicity
CN1CCN(c2c(F)cc3c(=O)c(C(=O)O)cn4c3c2OCN4C)CC1 | -1.37% [at 15.8 µM] (inactive)
C=CCCCCCCCCCCCCCCCC | -19.1% [at 6.97 µM] (inactive)
CCCC(=O)O[C@]1(C(=O)COC(=O)CC)CC[C@H]2[C@@H]3CCC4=CC(=O)CC[C@]4(C)[C@H]3[C@@H](O)C[C@@]21C | -8.51% [at 15.8 µM] (inactive)
[O]=[Bi] | -9.9% [at 6.97 µM] (inactive)

---

assay_summary: qHTS assay to identify small molecule agonists of the androgen receptor (AR) signaling pathway in the presence of an antagonist - cell viability counter screen (AID 1259379); note: nearly all actives have a fitted effect of over 25% in size
conditions_used: MDA-kb2 viability, CellTiter-Fluor, 16 h; series mostly up to 92.4 µM
Inconclusive results are not listed. The source made the active and inactive calls. Calls follow the shape of the dose curve; as a rule, active = well fitted cell-killing curve with a large enough effect in the repeat runs; inconclusive = weak or mixed curves, or effect the other way; inactive = flat fitted curve, though single readings scatter.
Outcome codes: active, inactive

molecule | cat
NC(=O)Nc1ccc(Cl)cc1 | inactive
C(=C\c1ccccc1)/CN1CCN(C(c2ccccc2)c2ccccc2)CC1 | inactive
C/C=C(\C)C(=O)OCCC(C)CCC=C(C)C (stereo not drawn) | inactive
Nc1ccc(C(=O)OCCCOC(=O)c2ccc(N)cc2)cc1 | inactive
CCOc1cc(N)c(Cl)cc1C(=O)NCC1CN(Cc2ccc(F)cc2)CCO1 (stereo not drawn) | inactive
C[N+]1(C)CCC(=C(c2ccccc2)c2ccccc2)CC1 | inactive
CN1CCCN=C1/C=C/c1cccs1 | inactive
CO[Si](C)(OC)OC | inactive
CC[C@@H]([C@H](C)O)n1ncn(-c2ccc(N3CCN(c4ccc(OC[C@@H]5CO[C@@](Cn6cncn6)(c6ccc(F)cc6F)C5)cc4)CC3)cc2)c1=O | active
COc1cc2[nH]c(=O)[nH]c(=O)c2cc1OC | inactive
c1ccc(COCc2ccccc2)cc1 | inactive
CO[C@H]1C=CO[C@@]2(C)Oc3c(C)c(O)c4c(O)c(c5c(c4c3C2=O)=NC2(CCN(CC(C)C)CC2)N=5)NC(=O)/C(C)=C\C=C/[C@H](C)[C@H](O)[C@@H](C)[C@@H](O)[C@@H](C)[C@H](OC(C)=O)[C@@H]1C | active
COC(=O)[C@@H]1CC2=CC(=O)CC[C@]2(C)[C@@]23O[C@@H]2C[C@@]2(C)[C@@H](CC[C@@]24CCC(=O)O4)[C@H]13 | inactive
O=C(O)Cc1ccc(-c2ccccc2)cc1 | inactive
C=CC(C)=CCC=C(C)C | inactive
CC(CCO)CCc1ccccc1 (stereo not drawn) | inactive
CC(C)CCCC(=O)O | inactive
Fc1c(F)c(F)c(Br)c(F)c1F | inactive
CCCCCCCCCCCCCCC[C@H](O)[C@@H](N)CO | inactive
CCC(C)(C)C1CCC(O)CC1 (stereo not drawn) | inactive
O=C(O)c1c(O)c(-c2ccccc2)nc2ccccc12 | inactive
Cc1ccc(/C=N/n2c(-c3ccccc3)csc2=S)cc1 | inactive
CCc1nn(CCCN2CCN(c3cccc(Cl)c3)CC2)c(=O)n1CCOc1ccccc1 | active

---

tested_target: Estrogen receptor beta (Homo sapiens) (UniProt Q92731)
Sequence (Q92731 whole entry, looked up): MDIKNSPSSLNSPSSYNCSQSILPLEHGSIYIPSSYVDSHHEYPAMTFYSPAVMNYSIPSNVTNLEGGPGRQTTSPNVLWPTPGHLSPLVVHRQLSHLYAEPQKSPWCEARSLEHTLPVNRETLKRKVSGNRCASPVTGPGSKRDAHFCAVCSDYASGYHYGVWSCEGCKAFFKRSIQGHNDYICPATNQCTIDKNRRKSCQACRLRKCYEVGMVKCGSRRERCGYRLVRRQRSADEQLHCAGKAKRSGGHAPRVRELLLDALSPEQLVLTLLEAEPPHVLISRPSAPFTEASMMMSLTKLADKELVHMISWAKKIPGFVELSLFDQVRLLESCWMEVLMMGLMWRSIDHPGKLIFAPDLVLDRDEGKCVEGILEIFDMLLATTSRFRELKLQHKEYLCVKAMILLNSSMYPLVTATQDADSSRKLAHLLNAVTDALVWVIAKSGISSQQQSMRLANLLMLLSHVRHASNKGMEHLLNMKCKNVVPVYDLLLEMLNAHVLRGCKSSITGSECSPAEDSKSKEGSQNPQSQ
assay_summary: qHTS assay to identify small molecule antagonists of the estrogen receptor beta (ER-beta) signaling pathway (AID 1259378)
conditions_used: ER-beta-UAS-bla HEK293T, beta-lactamase FRET ratio, 16 h; series mostly up to 92.4 µM
Results filed as inconclusive are left out. Activity calls are given as the source filed them. The call rests on the fitted dose curve; in most records, active means well fitted inhibition curve with a large enough effect in the signal ratio in the repeat runs (not every such curve was filed as active); inconclusive means weak or mixed curves, or effect the other way; inactive means no such curve, though single readings can be large or run the other way; the % refers to the signal ratio.
Classes used: active, inactive

compound | cat
Cc1cc(C(=C2C=CC(=Nc3ccc(S(=O)(=O)O)cc3S(=O)(=O)O)C=C2)c2ccc(Nc3ccc(S(=O)(=O)O)cc3)cc2)ccc1N | inactive
CCCCCCCC/C=C\CCCCCCCC(=O)OC | inactive
CC(C)(O)c1ccccc1CC[C@@H](SCC1(CC(=O)O)CC1)c1cccc(/C=C/c2ccc3ccc(Cl)cc3n2)c1 | inactive
CCOC(=O)c1ccccc1C | inactive
COc1cc2ncnc(Nc3ccc(F)c(Cl)c3)c2cc1OCCCN1CCOCC1 | active
CCCOC(=O)c1ccc(C(=O)OCCC)nc1 | inactive
C=C(C)C(=O)OCCOC(=O)CC(C)=O | inactive
O=C(O)c1snc(Cl)c1Cl | inactive
C[N+]1(C)CCC(=C(c2ccccc2)c2ccccc2)CC1 | inactive
CCCCC(CC)C(=O)OCCOCCOCCOCCOC(=O)C(CC)CCCC (stereo unspecified) | inactive
COC(OC)(C(=O)c1ccccc1)c1ccccc1 | inactive

---

assay_summary: qHTS assay to identify small molecule antagonists of the progesterone receptor (PR) signaling pathway - cell viability counter screen (AID 1346798); note: nearly all actives have a fitted effect of over 50% in size
conditions_used: PR-UAS-bla HEK293T viability, CellTiter-Glo luminescence, 16 h; series mostly up to 92.4 µM
Records with an inconclusive call do not appear. The source made the active and inactive calls. Calls come from the whole dose curve; as a rule, active = well fitted cell-killing curve with a large enough effect in the repeat runs; inconclusive = weak or mixed curves, or effect the other way; inactive = no such curve, though single readings can be large or run the other way.
Outcome codes: TRUE (active), FALSE (inactive)

compound | cat
O=C(O)c1snc(Cl)c1Cl | FALSE
CC(=O)OCC(=O)[C@@]12OC(C)(C)O[C@@H]1C[C@H]1[C@@H]3C[C@H](F)C4=CC(=O)C=C[C@]4(C)[C@@]3(F)[C@@H](O)C[C@@]12C | FALSE
C[Si]1(C)O[Si](C)(C)O[Si](C)(C)O1 | FALSE
CCOc1cc(N)c(Cl)cc1C(=O)NCC1CN(Cc2ccc(F)cc2)CCO1 (stereo not drawn) | FALSE
C1COCO1 | FALSE
CCCCN(CCCC)CCCOC(=O)c1ccc(N)cc1 | FALSE
CC#N | FALSE
CCOC(=O)c1ccccc1C | TRUE
CCCCC(CC)C(=O)OCCOCCOCCOCCOC(=O)C(CC)CCCC (stereo not drawn) | FALSE
CCCOC(=O)c1ccc(C(=O)OCCC)nc1 | FALSE
C=CC(C)=CCC=C(C)C | FALSE
CN1CCCN=C1/C=C/c1cccs1 | FALSE
CC1=CC(=O)CC(C)(C)C1(O)/C=C/C(C)=C\C(=O)O (stereo not drawn) | FALSE

---

Catalogue of viability change, negative = cytotoxic readings, one per entry.
assay_summary: qHTS assay to identify small molecule antagonists of the estrogen related receptor (ERR) signaling pathway from Tox21 library - cell viability counter screen (AID 1224834); note: % is set by controls: 0 for no effect and ±100 for the full control effect; nearly all actives have a fitted effect of over 30% in size
conditions_used: ERR reporter cells viability, CellTiter-Fluor, 17.5 h; series mostly up to 92.4 µM
Inconclusive results are not listed. Activity calls are given as the source filed them. The call rests on the fitted dose curve; in most records, active means well fitted cell-killing curve with a large enough effect in the repeat runs; inconclusive means weak or mixed curves; inactive means flat fitted curve, though single readings scatter.
quantity_name: viability change, negative = cytotoxic

molecule | reading
C=CCCCCCCCCCCCCCCCC | 0.934% [at 8.39 µM] (inactive)
CCCCCCCCCCCCCCCCBr | 0.749% [at 19 µM] (inactive)
CC1CN(c2cc3c(cc2F)c(=O)c(C(=O)O)cn3-c2ccc(F)cc2F)CCN1 (centres undefined) | 4.3% [at 8.39 µM] (inactive)
CN1CCN(c2c(F)cc3c(=O)c(C(=O)O)cn4c3c2OCN4C)CC1 | 6.99% [at 19 µM] (inactive)

---

assay_summary: qHTS RealTime-Glo MT Cell Viability Assay in HEK293 cells - 24 hour (AID 1224886); note: nearly all actives have a fitted effect of over 50% in size
conditions_used: RealTime-Glo luminescence; series mostly up to 76.8 µM
Inconclusive results are not listed. Active and inactive are the calls of the source. Calls follow the shape of the dose curve; as a rule, active = well fitted cell-killing curve with a large enough effect in the repeat runs; inconclusive = weak or mixed curves, or effect the other way; inactive = flat fitted curve, though single readings scatter.
Outcome codes: active, inactive

molecule | cat
CC(C)(C)C(=O)C(Oc1ccc(Cl)cc1)n1ccnc1 (stereo unspecified) | inactive
CCOC(=O)[C@@H](C)Oc1ccc(Oc2nc3ccc(Cl)cc3o2)cc1 | active
CC(C)(O)c1ccccc1CC[C@@H](SCC1(CC(=O)O)CC1)c1cccc(/C=C/c2ccc3ccc(Cl)cc3n2)c1 | inactive
OC/C(Br)=C(\Br)CO | inactive
CCOC(=O)OCC | inactive
Cc1cc(O)c(C(C)C)cc1Cl | inactive
